Target: ~100 representative kinases (Homo sapiens)
Construct: Recombinant protein kinase domains with a concentration of 2 μM
Experiment: DSF 100 kinase selectivity screen;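 also: compound tested at 20 µM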
Assay type: binding
Conditions: Protein DYRK1A; average of three replicates
Decision: dTm >= 2 K yields true (1), all other cases yield false (0).

Reference set (6 entries):
INSERT INTO results (smiles_str, category_label) VALUES
  ('O=C(Nc1ccccc1)C1(C(=O)Nc2cccc(-c3c[nH]c4ncnc(N5CCOCC5)c34)c2)CC1', 'true (1)'),
  ('Cc1ccc(-n2nc(C(C)(C)C)cc2NC(=O)Nc2cccc(-c3c[nH]c4ncnc(N5CCOCC5)c34)c2)cc1', 'true (1)'),
  ('O=C(Nc1cccc(-c2c[nH]c3ncnc(N4CCOCC4)c23)c1)C1(C(=O)Nc2ccc(F)c(Br)c2F)CC1', 'false (0)'),
  ('O=C(Nc1cccc(-c2c[nH]c3ncnc(N4CCOCC4)c23)c1)C1(C(=O)Nc2cccc3c2CCC3)CC1', 'false (0)'),
  ('CC(C)(C)c1cccc(NC(=O)C2(C(=O)Nc3cccc(-c4c[nH]c5ncnc(N6CCOCC6)c45)c3)CC2)c1', 'false (0)'),
  ('O=C(Nc1cc(F)cc(Br)c1)C1(C(=O)Nc2cccc(-c3c[nH]c4ncnc(N5CCOCC5)c34)c2)CC1', 'false (0)');

[ask] Would you say `Cc1cc(F)ccc1NC(=O)C1(C(=O)Nc2cccc(-c3c[nH]c4ncnc(N5CCOCC5)c34)c2)CC1` shows dTm at minimum 2 K?
[reply] false (0)

[ask] Would you say `CC(=O)N1CCN(c2nc(Cl)nc3[nH]cc(-c4cccc(NC(=O)Nc5cc(C(C)(C)C)nn5-c5ccc(C)cc5)c4)c23)CC1` shows dTm at minimum 2 K?
[reply] false (0)

[ask] Would you say `O=C(Nc1ccc(Cl)cc1)C1(C(=O)Nc2cccc(-c3c[nH]c4ncnc(N5CCOCC5)c34)c2)CC1` shows dTm at minimum 2 K?
[reply] true (1)
